# Tested on: Staphylococcus aureus
# test: Antibacterial activity against Staphylococcus aureus 209P assessed as zone of inhibition at 1 mg/ml by agar well diffusion method
# Assay type: functional
# assay-context: read-out: DIZ
quantity-measured: zone of inhibition at 1000 µg/mL

Recorded zone of inhibition at 1000 µg/mL of CCOc1ccc2sc(S(C)(=O)=O)nc2c1S(=O)(=O)NCc1ccccc1 , please.
≤ 7 mm

Input CCCNS(=O)(=O)c1c(OCC)ccc2sc(S(C)(=O)=O)nc12
≤ 7 mm

Input CCOc1ccc2sc(S(C)(=O)=O)nc2c1S(=O)(=O)O
≤ 7 mm

Input CCOc1ccc2sc(S(C)(=O)=O)nc2c1N
17 mm

Input CCNS(=O)(=O)c1c(OCC)ccc2sc(S(C)(=O)=O)nc12
≤ 7 mm
